target: ZenARe; construct: gene zenA; C-terminal 6xHis-tag; assay: stopped-flow tryptophan fluorescence ([…] °C, net dissociation constant of two-step binding); steady-state KM […]; set-up: species or system Rhodococcus erythropolis
VALUE_KIND: pKd
Units for pKd: none; it is -log10 of a concentration expressed in mol/L.

Input: Give the reported pKd for C[C@H]1CCCC(=O)CCC/C=C/c2cc(O)cc(O)c2C(=O)O1 [ZEN] (system: ZenARe).
Output: 6.68
